Measured melting point, listed per entry.

>  <compound>
COc1ccc(OC)c(C(Nc2ccc(C(=N)N)cc2)C(=O)O)c1 (racemic)

>  <melting point [°C]>
310

$$$$
>  <compound>
CCOc1ccc(OCC(N)=O)c(C(Nc2ccc(C(=N)N)cc2)C(=O)O)c1 (racemic)

>  <melting point [°C]>
266

$$$$
>  <compound>
COc1ccc(OCC(=O)O)c(C(Nc2ccc(C(=N)N)cc2)C(=O)O)c1 (racemic)

>  <melting point [°C]>
213

$$$$
>  <compound>
CCOc1ccc(OCCOC)c(C(Nc2ccc(C(=N)N)cc2)C(=O)O)c1 (racemic)

>  <melting point [°C]>
275

$$$$
>  <compound>
CCOc1ccc(OCCCCC(=O)O)c(C(Nc2ccc(C(=N)N)cc2)C(=O)O)c1 (racemic)

>  <melting point [°C]>
260

$$$$
>  <compound>
[H]/N=C(\NO)c1ccc(NC(C(=O)OC)c2cc(OC)c(OC)cc2OCc2cccc(C(=O)OC)c2)cc1 (racemic)

>  <melting point [°C]>
173

$$$$
>  <compound>
CCCc1cc(C)cc(C(Nc2ccc(C(=N)N)cc2)C(=O)O)c1OCCO (racemic)

>  <melting point [°C]>
240

$$$$
>  <compound>
C=CCc1cc(C)cc(C(Nc2ccc(C(=N)N)cc2)C(=O)O)c1OCCO (racemic)

>  <melting point [°C]>
228

$$$$
>  <compound>
N=C(N)c1ccc(NC(C(=O)O)c2ccccc2OCC(=O)O)cc1 (racemic)

>  <melting point [°C]>
223

$$$$
>  <compound>
CCCc1cc(C)c(OCCO)c(C(Nc2ccc(C(=N)N)cc2)C(=O)O)c1 (racemic)

>  <melting point [°C]>
230

$$$$
>  <compound>
N=C(N)c1ccc(NC(C(=O)O)c2cccc(OCc3ccccc3)c2)cc1 (racemic)

>  <melting point [°C]>
306

$$$$
